Molecular target: p38b (Homo sapiens, UniProt Q15759)
Construct: Nanosyn (contract laboratory that ran the panel)
Sequence (Q15759 whole entry): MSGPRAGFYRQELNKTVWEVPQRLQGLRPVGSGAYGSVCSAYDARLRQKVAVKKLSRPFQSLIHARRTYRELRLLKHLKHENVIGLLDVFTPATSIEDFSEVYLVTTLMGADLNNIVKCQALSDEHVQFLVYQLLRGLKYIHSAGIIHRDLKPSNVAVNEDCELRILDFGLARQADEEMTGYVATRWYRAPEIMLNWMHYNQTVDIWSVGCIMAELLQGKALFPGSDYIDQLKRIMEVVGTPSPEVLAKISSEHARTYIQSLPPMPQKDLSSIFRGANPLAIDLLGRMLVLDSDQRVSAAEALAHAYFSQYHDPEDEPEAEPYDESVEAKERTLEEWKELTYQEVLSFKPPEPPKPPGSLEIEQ
Assay: Kinase panel enzymatic inhibition assay (Nanosyn)
Assay type: biochemical
Details: compound 5 μM; ATP at Km; 30-minute pre-incubation
Protocol: The disclosed compounds were tested for activity against a panel of at least 300 kinases. […]
recorded.endpoint: inhibition at 5 µM

// query inhibition at 5 µM value for entry Cc1ccc(NC(=O)c2cc([S+](C)[O-])n(-c3ccc(F)cc3)n2)cc1C#Cc1cnc2cccnn12 (stereo not shown)
80 to 89%

// query: Cc1ccc(NC(=O)c2cc([S+](C)[O-])n(-c3ccc(F)cc3)n2)cc1Nc1ccc2ncn(C)c(=O)c2c1 (stereo not shown)
80 to 89%

// query: `Cc1ccc(NC(=O)c2cc(S(C)(=O)=O)n(-c3ccc(F)cc3)n2)cc1C#Cc1cnc2cccnn12`
< 79%

// query: `CNC(=O)c1cc(Oc2ccc(NC(=O)c3cc(S(C)(=O)=O)n(-c4ccc(F)cc4)n3)c(F)c2)ccn1`
< 79%

// query: `Cc1ccc(NC(=O)c2cc(S(C)(=O)=O)n(-c3ccc(F)cc3)n2)cc1Nc1ccc2ncn(C)c(=O)c2c1`
< 79%

// query: `Cc1ccc(NC(=O)c2cc(S(C)(=O)=O)n(-c3ccc(F)cc3)n2)cc1-c1cc(OCCO)nc(N2CCOCC2)c1`
80 to 89%

// query: `CSc1cc(C(=O)Nc2cc(Oc3ccnc(C(=O)NC4CNC4)c3)ccc2F)nn1-c1ccc(F)cc1`
< 79%

* * *

Biological target: RIPK1 (Homo sapiens, UniProt Q13546)
Sequence (Q13546 1-671): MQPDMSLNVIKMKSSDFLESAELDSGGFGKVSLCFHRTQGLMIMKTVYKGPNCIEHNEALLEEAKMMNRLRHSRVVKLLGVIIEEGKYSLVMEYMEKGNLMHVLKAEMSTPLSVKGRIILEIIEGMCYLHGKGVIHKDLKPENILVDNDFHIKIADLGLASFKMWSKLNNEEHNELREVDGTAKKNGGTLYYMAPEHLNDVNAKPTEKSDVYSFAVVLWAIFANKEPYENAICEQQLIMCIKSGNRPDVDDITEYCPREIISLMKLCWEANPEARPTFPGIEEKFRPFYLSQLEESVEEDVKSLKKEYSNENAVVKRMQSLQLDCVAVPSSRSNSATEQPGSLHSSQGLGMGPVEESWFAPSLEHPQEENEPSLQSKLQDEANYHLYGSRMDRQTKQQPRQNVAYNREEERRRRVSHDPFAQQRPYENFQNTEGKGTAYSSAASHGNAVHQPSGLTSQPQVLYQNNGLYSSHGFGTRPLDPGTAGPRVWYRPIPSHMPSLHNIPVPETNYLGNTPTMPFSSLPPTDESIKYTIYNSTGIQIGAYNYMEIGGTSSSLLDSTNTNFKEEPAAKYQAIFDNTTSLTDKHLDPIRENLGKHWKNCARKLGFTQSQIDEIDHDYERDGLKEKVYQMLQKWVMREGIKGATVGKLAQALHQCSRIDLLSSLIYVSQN
recorded.endpoint: IC50

// query IC50 value for entry Cn1cnc2ccc(Oc3ccc(F)c(NC(=O)c4ccn(-c5ccc(F)cc5)n4)c3)cc2c1=O [Ex80]
≥ 10 µM

* * *

Exercise: for every item that follows, state its recorded inhibition at 5 µM.
target: DDR2 (Homo sapiens, UniProt Q16832); construct: purchased Nanosyn (contract screening); test: Kinase panel enzymatic inhibition assay (Nanosyn); format: biochemical; details: compound 5 μM; ATP at Km; 30-minute pre-incubation
Sequence (Q16832 22-855): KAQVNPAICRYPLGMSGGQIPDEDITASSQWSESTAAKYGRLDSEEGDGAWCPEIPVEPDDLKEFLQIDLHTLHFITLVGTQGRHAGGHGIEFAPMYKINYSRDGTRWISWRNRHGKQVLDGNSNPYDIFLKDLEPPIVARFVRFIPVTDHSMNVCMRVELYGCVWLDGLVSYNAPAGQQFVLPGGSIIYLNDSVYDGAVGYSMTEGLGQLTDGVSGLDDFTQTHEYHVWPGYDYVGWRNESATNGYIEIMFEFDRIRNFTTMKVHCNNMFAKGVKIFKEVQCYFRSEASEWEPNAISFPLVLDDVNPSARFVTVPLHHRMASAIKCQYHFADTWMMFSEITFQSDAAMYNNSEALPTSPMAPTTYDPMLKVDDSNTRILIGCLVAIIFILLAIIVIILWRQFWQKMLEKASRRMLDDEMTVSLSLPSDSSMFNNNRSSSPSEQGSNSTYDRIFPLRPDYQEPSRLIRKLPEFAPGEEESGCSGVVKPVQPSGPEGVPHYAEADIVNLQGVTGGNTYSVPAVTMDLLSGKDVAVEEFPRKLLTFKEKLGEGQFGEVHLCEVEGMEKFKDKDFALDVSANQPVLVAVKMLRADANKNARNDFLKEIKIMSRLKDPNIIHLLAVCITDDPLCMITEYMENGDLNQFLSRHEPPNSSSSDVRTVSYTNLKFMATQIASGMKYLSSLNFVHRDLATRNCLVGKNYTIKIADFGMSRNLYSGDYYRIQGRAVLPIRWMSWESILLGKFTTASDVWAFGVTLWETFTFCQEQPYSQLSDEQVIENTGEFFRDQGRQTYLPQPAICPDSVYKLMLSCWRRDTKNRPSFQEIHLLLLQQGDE

// query inhibition at 5 µM value for entry Cc1ccc(NC(=O)c2cc(S(C)(=O)=O)n(-c3ccc(F)cc3)n2)cc1-c1cc(N2CCOCC2)c(=O)n(C)c1 [Ex12]
< 79%

// query: CNC(=O)c1cc(Oc2ccc(NC(=O)c3cc(S(C)(=O)=O)n(-c4ccc(F)cc4)n3)c(F)c2)ccn1 [Ex17]
< 79%

// query: CSc1cc(C(=O)Nc2cc(Oc3ccnc(C(=O)NC4CNC4)c3)ccc2F)nn1-c1ccc(F)cc1 [Ex8]
< 79%

// query: CCOC(=O)Nc1cn2nc(Nc3cc(NC(=O)c4cc(S(C)(=O)=O)n(-c5ccc(F)cc5)n4)ccc3C)ccc2n1 [Ex15]
≥ 95%

// query: Cc1ccc(NC(=O)c2cc([S+](C)[O-])n(-c3ccc(F)cc3)n2)cc1-c1cc(N2CCOCC2)c(=O)n(C)c1 (stereo not shown) [Ex11]
< 79%

// query: Cc1ccc(NC(=O)c2cc(S(C)(=O)=O)n(-c3ccc(F)cc3)n2)cc1Nc1nccc(-c2cccnc2N)n1 [Ex13]
≥ 95%

// query: Cc1ccc(NC(=O)c2cc([S+](C)[O-])n(-c3ccc(F)cc3)n2)cc1-c1cc(OCCO)nc(N2CCOCC2)c1 (stereo not shown) [Ex10]
80 to 89%

Data provenance: patent US20240400577A1
